assay: Half life in rat at 10 mg/kg; type: ADME, organism-based; set-up: dose 10 mg/kg; conditions: in vivo
Measured Attribute: half-life (h)

Smiles Text: Fc1ccc(Nc2ncnc3nc(Nc4ccc(CN5CCOCC5)cc4)sc23)cc1Cl
half-life [h]: 1.88

A: CN(C)Cc1ccc(Nc2nc3ncnc(Nc4ccc(F)c(Cl)c4)c3s2)cc1
B: Fc1ccc(Nc2ncnc3nc(Nc4ccc(CCN5CCOCC5)cc4)sc23)cc1Cl
C: N#Cc1cnc2nc(Nc3ccc(CN4CCOCC4)cc3)sc2c1Nc1ccc(F)c(Cl)c1
Q. Number of molecules to sort: 3. Sort criterion: half-life, ascending. Sort the labels as requested; that list is your answer.
A. B, A, C
(B: 1.8 h, A: 3.2 h, C: 4.9 h)
